Tested on: PRKD2;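 note: KINOMEscan kinase panel screen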
conditionContext: concentration: 1 μM,replicates: in singlicate; n = 1
Please go through the items and note down their %Inh.
Just the number please, in %, no unit attached.

// %Inh (PRKD2) for `O=C(Nc1cccc(C(F)(F)F)c1)c1cccc(Oc2ccc3nccn3n2)c1` = 0

The value of %Inh recorded for COC(=O)Nc1nc2cc(Oc3ccc(NC(=O)Nc4cc(C(F)(F)F)ccc4Cl)cc3)ccc2[nH]1.Cl [GW697465] when tested on PRKD2 reads 1

Observed %Inh, PRKD2, Cl.Nc1n[nH]c2cc(-c3ccccn3)ccc12 [GSK2189892] : 10

Note to self: %Inh of Cc1ccn2nc(-c3ccc(F)cc3)c(-c3ccncc3)c2c1.Cl [GW457859] with PRKD2 was 20

Item `Cn1cc(-c2cccc3c(N)c(C(N)=O)nnc23)cn1` was tested on PRKD2; the reported %Inh is 15

Lab note: compound `Cn1ccc2ncnc(Oc3ccc(NC(=O)Nc4cccc(C(F)(F)F)c4)c(F)c3)c21` tested on PRKD2; recorded %Inh was 3

Reported PRKD2 %Inh for item COc1cc2nccc(Nc3ccc(Oc4ccccc4)cc3)c2cc1OC.Cl [GI261656] was 0

Value sought: %Inh, system PRKD2, item CCOC(=O)N1CCC(n2cnc(-c3ccc(F)cc3)c2-c2ccnc(N)n2)CC1 [SB-219952] . Result: 5

Kindly note: PRKD2, `Cn1ccc2ncnc(Oc3ccc(NC(=O)Nc4ccnc(C(F)(F)F)c4)c(Cl)c3)c21` , %Inh value reported: 4
